target: HLA-A3001 (Homo sapiens, UniProt P04439, D140H/D185E/E176W/F33S/G80R/H175R/K168Q/R138E/R41S); assay: Competitive peptide binding assay, HLA-A3001 transfected HMy2.CIR cells; settings: 5 μM unlabeled peptide, reference peptide ASRELK(FITC)VSY 300 nM, 24 h, 4 °C
Parameter: 5 μM inhibition (%)
Write it as a number; the unit % goes unstated.

Prompt line: Reported 5 μM inhibition (%) for ASVYAWNRK [Epitope D72, S protein 348-356] : what is it?
Response line: 44.70

Prompt line: What value of 5 μM inhibition (%) has been recorded for this entry: ATRFASVYA [Epitope D65, S protein 344-352]
Response line: 75.62

Prompt line: Entry CTLKSFTVEK [Epitope D40, S protein 301-310] has what 5 μM inhibition (%)?
Response line: 36.91

---

Biological target: HLA-A3303 (Homo sapiens, UniProt P04439, A270S/D185E/E176V/E277Q/E87N/F33T/G231S/H175R/I121M/I218V/I322F/K168Q/L300P/L318F/M331R/P217A/Q86R/Q94H/R138Q/T323A/T345S/T97I/V358M)
Test: Competitive peptide binding assay, HLA-A3303 transfected HMy2.CIR cells
Conditions: 5 μM unlabeled peptide, reference peptide YVNVNK(FITC)GLK 300 nM, 24 h, 4 °C
Text: The HMy2.CIR cell line was purchased (Zhongqiao Xinzhou Biotech, Shanghai) and maintained in complete IMDM with 10% FCS and 1% penicillin/streptomycin. […] High-expressing cells were then sorted using a fluorescence-activated cell sorter (FACS, BD FACSAria II SORP), followed by pure culture and gene sequencing analyses. […]
Parameter: 5 μM inhibition (%)
# output: number + unit

Prompt line: # 5 μM inhibition (%) lookup, item CSLSHRFYR [Epitope R43, RdRp protein 646-654]
Response line: 60.81%

Prompt line: Reported 5 μM inhibition (%), sequence GTHWFVTQR [Epitope D48, S protein 1099-1107] : ____
Response line: 13.39%

Prompt line: Name the recorded 5 μM inhibition (%) for NVYADSFVIR [Epitope D79, S protein 394-403] .
Response line: 33.10%

Prompt line: Which 5 μM inhibition (%) value belongs to IGYYRRATR [Epitope C46, N protein 84-92] ?
Response line: 10.90%

Prompt line: I am curious: what 5 μM inhibition (%) value has been reported for NIVNVSLVK [Epitope A12, E protein 45-53] ?
Response line: 6.65%

Prompt line: Item SVYAWNRKR [Epitope D76, S protein 349-357] has what recorded 5 μM inhibition (%)?
Response line: 75.40%

Prompt line: Name the reported 5 μM inhibition (%) value associated with the sequence SFRLFARTR [Epitope B34, M protein 99-107]
Response line: 41.26%

Prompt line: // 5 μM inhibition (%) lookup, key: LSYFIASFR [Epitope B20, M protein 93-101]
Response line: 7.10%

Prompt line: For NGVGYQPYR [Epitope D82, S protein 501-509] , what is its reported 5 μM inhibition (%)?
Response line: 49.40%

Prompt line: What value of measured 5 μM inhibition (%) is listed for TLAILTALR [Epitope A16, E protein 30-38] ?
Response line: 42.61%

Prompt line: So what's the measured 5 μM inhibition (%) for this one? YSRYRIGNYK [Epitope B21, M protein 196-205]
Response line: 20.36%
